So I've got a bunch of molecules here, and I need their IC50 values.
# EXPERIMENTAL_SYSTEM: PDGFRalpha(V561D) (Homo sapiens, UniProt P16234, V561D)
# Construct: recombinant human PDGFRalpha, amino acids 550end containing the V561 D mutation; 6His (N)
# Sequence (P16234 550-1089 V561D): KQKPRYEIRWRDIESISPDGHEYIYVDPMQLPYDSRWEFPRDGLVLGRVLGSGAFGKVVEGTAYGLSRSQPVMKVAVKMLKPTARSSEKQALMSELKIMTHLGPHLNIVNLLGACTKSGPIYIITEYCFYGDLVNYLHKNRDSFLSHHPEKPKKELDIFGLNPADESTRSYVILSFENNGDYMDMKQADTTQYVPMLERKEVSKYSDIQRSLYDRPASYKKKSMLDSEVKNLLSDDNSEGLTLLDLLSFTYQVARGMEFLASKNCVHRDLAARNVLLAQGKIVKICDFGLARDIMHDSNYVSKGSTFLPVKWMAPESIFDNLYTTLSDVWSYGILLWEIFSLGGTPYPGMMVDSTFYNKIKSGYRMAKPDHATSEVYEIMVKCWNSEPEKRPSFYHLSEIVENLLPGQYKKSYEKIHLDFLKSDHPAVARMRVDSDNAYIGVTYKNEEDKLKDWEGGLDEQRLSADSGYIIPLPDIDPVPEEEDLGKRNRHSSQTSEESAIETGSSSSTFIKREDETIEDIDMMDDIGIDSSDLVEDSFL
# MEASUREMENT_NOTES: PDGFRalpha(V561D) assay
# MEASUREMENT_SETUP: recombinant human PDGFRalpha aa 550-end, 200 μM ATP, 1.4E-06 means 1.4×10^−6, read-out: Inhibition (IC50) of PDGFRα (V561D)
Please reply with the bare figure in nM and do not write the unit itself.

input: Any idea what IC50 came out for COCC1CCCN1C(=O)c1ccc(-n2cc(-c3cc4cc(F)ccc4[nH]c3=O)nn2)cc1 (stereo in doubt) [A198] on PDGFRalpha(V561D) (Homo sapiens, UniProt P16234, V561D)?
output: 200

input: Try O=C(c1ccc(-n2cc(-c3cc4cncnc4[nH]c3=O)nn2)cc1)N1CCOCC1 [A94] next.
output: 2300

input: Record: CN(C)[C@H]1CCCN(C(=O)c2ccc(-n3cc(-c4cc5cc(F)ccc5[nH]c4=O)nn3)cc2)C1 [A332]
output: 100

input: Query O=C(c1ccc(-n2cc(-c3cc4cc(F)ccc4[nH]c3=O)nn2)cc1)N1CC[C@@H](F)C1 [A269] next
output: 1.5

input: # repeat for CN1CCN(C(=O)c2ccc(-n3cc(-c4cc5cc(F)ccc5[nH]c4=O)nn3)cc2)CCC1=O [A110]
output: 28

input: Repeat with CN1CCN(C(=O)COc2ccc(-n3cc(-c4cc5cc(F)ccc5[nH]c4=O)nn3)cc2)CC1 [A165]
output: 33

input: Also need O=c1[nH]c2cc(F)c(F)cc2cc1-c1cn(-c2ccc(CCN3CCCC3)cc2)nn1 [A115a] , thanks.
output: 1500

input: # repeat for CO[C@H]1CC[C@@H](Oc2ccc(-n3cc(-c4cc5cc(F)ccc5[nH]c4=O)nn3)cc2)C1 (stereo in doubt) [A355]
output: 1600

---

# EXPERIMENTAL_SYSTEM: c-Kit(V654A) (Homo sapiens, UniProt P10721, V654A)
# Construct: amino acids 544-end containing the V654A mutation; GST (N)
# Sequence (P10721 544-976 V654A): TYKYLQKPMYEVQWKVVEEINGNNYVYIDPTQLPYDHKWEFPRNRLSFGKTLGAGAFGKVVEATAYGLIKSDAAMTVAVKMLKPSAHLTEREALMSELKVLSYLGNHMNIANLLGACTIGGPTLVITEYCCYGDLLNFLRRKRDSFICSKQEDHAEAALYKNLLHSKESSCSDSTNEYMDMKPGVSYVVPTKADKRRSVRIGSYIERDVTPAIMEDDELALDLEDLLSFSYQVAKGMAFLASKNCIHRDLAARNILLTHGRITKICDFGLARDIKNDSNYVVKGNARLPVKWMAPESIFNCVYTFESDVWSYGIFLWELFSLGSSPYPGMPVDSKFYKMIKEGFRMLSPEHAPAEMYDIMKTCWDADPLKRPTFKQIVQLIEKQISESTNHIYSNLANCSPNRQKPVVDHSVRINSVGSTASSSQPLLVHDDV
# MEASUREMENT_NOTES: c-Kit(V654A) assay
# MEASUREMENT_SETUP: recombinant human c-Kit aa 544-end, 200 μM ATP, 1.4E-06 means 1.4×10^−6, read-out: Inhibition (IC50) of c-KIT (V654A)
Could you please report measured pIC50 for the items listed next?
Recall that pIC50 is obtained by taking minus log10 of the concentration measured in molar.

input: Quick one: pIC50 for CN1CC[C@@H](Oc2ccc(-n3cc(-c4cc5cc(F)c(F)cc5[nH]c4=O)nn3)cc2)C1 [A373] ?
output: 7.82

input: Thanks! And CO[C@H]1CCN(C(=O)c2ccc(-n3cc(-c4cc5cc(F)ccc5[nH]c4=O)nn3)cc2)C1 [A112] ?
output: 7.80

input: Try this compound too: COCCO[C@@H]1CCN(C(=O)c2ccc(-n3cc(-c4cc5cc(F)ccc5[nH]c4=O)cn3)cc2)C1 [A261]
output: 7.36

input: Then CN(C)C(=O)c1ccc(-n2cc(-c3cc4ccncc4[nH]c3=O)nn2)cc1 [A42] ?
output: 7.08

input: And CO[C@@H]1C[C@H](CO)N(C(=O)c2ccc(-n3cc(-c4cc5cc(Cl)ccc5[nH]c4=O)nn3)cc2)C1 [A247] ?
output: 7.64

input: Do the same for CO[C@H]1CCCN(C(=O)c2ccc(-n3cc(-c4cc5cc(F)c(F)cc5[nH]c4=O)nn3)cc2)C1 [A193] please
output: 6.64

input: Same question for CN(C)C1CCN(C(=O)c2ccc(-n3cc(-c4cc5cc(F)ccc5[nH]c4=O)nn3)cc2)CC1 [A172] please.
output: 8.20

input: Similarly, COCCN(CCOC)C(=O)c1ccc(-n2cc(-c3cc4cc(F)ccc4[nH]c3=O)nn2)cc1 [A238] ?
output: 7.10

input: What do we get for O=C(c1ccc(-n2cc(-c3cc4cc(F)ccc4[nH]c3=O)nn2)cc1)N1CCC(O)CC1 [A183] ?
output: 8.12

input: Same read-out for COCCCN1CCN(C(=O)c2ccc(-n3cc(-c4cc5cc(F)ccc5[nH]c4=O)nn3)cc2)CC1 [A86] ?
output: 7.96

input: What do we get for O=c1[nH]c2ccccc2cc1-c1cn(-c2cnc(N3CCNCC3)nc2)nn1 [A54] ?
output: 6.31

input: Try this compound next: CN(C)C[C@H]1CCN(C(=O)c2ccc(-n3cc(-c4cc5cc(F)c(F)cc5[nH]c4=O)nn3)cc2)C1 [A335]
output: 6.77

input: And then O=C(c1ccc(-n2cc(-c3cc4cc(F)ccc4[nH]c3=O)nn2)cc1)N1CCCCC12COC2 [A245] , what is it?
output: 7.19

input: Repeat with CS(=O)(=O)[C@@H]1CCN(C(=O)c2ccc(-n3cc(-c4cc5cc(F)ccc5[nH]c4=O)nn3)cc2)C1 [A282]
output: 7.80

input: Entry to check: NC(=O)[C@@H]1CCN(C(=O)c2ccc(-n3cc(-c4cc5cc(F)ccc5[nH]c4=O)nn3)cc2)C1 [A226]
output: 7.26

input: Can you check O=C(c1ccc(-n2cc(-c3cc4cc(F)ccc4[nH]c3=O)nn2)cc1)N1CCC(N2CCC(O)CC2)C1 (stereo not shown) [A208] next?
output: 7.74

---

# EXPERIMENTAL_SYSTEM: PDGFRalpha(V561D) (Homo sapiens, UniProt P16234, V561D)
# Construct: recombinant human PDGFRalpha, amino acids 550end containing the V561 D mutation; 6His (N)
# MEASUREMENT_NOTES: PDGFRalpha(V561D) assay
# MEASUREMENT_SETUP: recombinant human PDGFRalpha aa 550-end, 200 μM ATP, 1.4E-06 means 1.4×10^−6, read-out: Inhibition (IC50) of PDGFRα (V561D)
READOUT_KIND: pIC50
Remember the convention: pIC50 equals -log10 of concentration in molar.

input: Give pIC50 (PDGFRalpha(V561D) (Homo sapiens, UniProt P16234, V561D)) of the following compound: CN1CCC(NC(=O)c2ccc(-n3cc(-c4cc5ccccc5[nH]c4=O)nn3)cc2)CC1 [A58]
output: 7.68

input: Now the compound O=C(c1ccc(-n2cc(-c3cc4cc(F)ccc4[nH]c3=O)nn2)cc1)N1CCNCC1 [A53]
output: 8.05

input: Then what about the compound O=C(c1ccc(-n2cc(-c3cc4cccnc4[nH]c3=O)nn2)cc1)N1CCNCC1 [A121] ?
output: 7.80

input: Try this compound next: CN1CCCN(c2ccc(-n3cc(-c4cc5ccccc5[nH]c4=O)nn3)cc2)CC1 [A69]
output: 8.00

input: // repeat for CO[C@@H]1C[C@@H](CO)N(C(=O)c2ccc(-n3cc(-c4cc5cc(F)ccc5[nH]c4=O)nn3)cc2)C1 [A241] and report
output: 6.54

input: Try COC[C@H]1CC[C@H](COC)N1C(=O)c1ccc(-n2cc(-c3cc4cc(F)ccc4[nH]c3=O)nn2)cc1 [A218] next.
output: 7.23

input: What about CN1CCN(C(=O)c2ccc(-n3cc(-c4cc5cc(F)ccc5[nH]c4=O)nn3)cc2)CC1 [A56] ?
output: 8.30

input: Another compound to check: CN1CCN(C(=O)c2ccc(-n3cc(-c4cc5cc(F)cnc5[nH]c4=O)nn3)cc2)CC1 [A67]
output: 8.40

---

# EXPERIMENTAL_SYSTEM: PDGFRalpha(V561D) (Homo sapiens, UniProt P16234, V561D)
# Construct: recombinant human PDGFRalpha, amino acids 550end containing the V561 D mutation; 6His (N)
# MEASUREMENT_NOTES: PDGFRalpha(V561D) assay
# MEASUREMENT_SETUP: recombinant human PDGFRalpha aa 550-end, 200 μM ATP, 1.4E-06 means 1.4×10^−6, read-out: Inhibition (IC50) of PDGFRα (V561D)
Structures can show the parent of a compound that is named as a salt.
Threshold-based label: IC50 under 200 nM gives T, IC50 not under 200 nM gives F.

input: Is it true that IC50 reported for O=C(c1ccc(-n2cc(-c3cc4cc(Cl)ccc4[nH]c3=O)nn2)cc1)N1CC2(COC2)C1 [A258] is less than 200 nM?
output: T

input: Next record, please: O=C(NCCO)c1ccc(-n2cc(-c3cc4ccccc4[nH]c3=O)nn2)cc1 [A19]
output: T

input: Same thing, different molecule: Cc1ccc2cc(-c3cn(-c4ccc(C(=O)N5CCOCC5)cc4)nn3)c(=O)[nH]c2n1 [A30]
output: T

input: Similarly, O=C(c1ccc(-n2cc(-c3cc4cc(F)ccc4[nH]c3=O)nn2)cc1)N1CCC(OCCN2CCCC2)C1 (centres unmarked) [A224] ?
output: F

input: Okay, and CN1CCN(C(=O)Cn2ccc3cc(-n4cc(-c5cc6cc(F)ccc6[nH]c5=O)nn4)ccc32)CC1 [A178] ?
output: T

input: CC(=O)O[C@H]1CCN(C(=O)c2ccc(-n3cc(-c4cc5cc(F)ccc5[nH]c4=O)nn3)cc2)C1 [A180] ?
output: T

input: Now consider CC(C)(O)c1ccc(-n2cc(-c3cc4ccccc4[nH]c3=O)nn2)cc1 [A36] and answer again.
output: T

input: Now this one: O=C(c1ccc(-n2cc(-c3cc4cc(Cl)ccc4[nH]c3=O)nn2)cc1)N1CCC(N2CCC(O)CC2)C1 (centres unmarked) [A249]
output: F

input: Then CN[C@H]1CCN(C(=O)c2ccc(-n3cc(-c4cc5cc(F)ccc5[nH]c4=O)nn3)cc2)C1 [A312, hydrochloride] ?
output: F

input: Query O=C(c1ccc(-n2cc(-c3cc4ccccc4[nH]c3=O)nn2)cc1)N1CCNCC1 [A50] next
output: T

input: Ok, now NC1CCN(C(=O)c2ccc(-n3cc(-c4cc5cc(F)ccc5[nH]c4=O)nn3)cc2)CC1 [A144]
output: T

input: And what about the molecule O=C(c1cccc(-n2cc(-c3cc4ccccc4[nH]c3=O)nn2)c1)N1CCOCC1 [A76] ?
output: T

input: Same lookup for CN1CCC(C(=O)c2ccc(-n3cc(-c4cc5cc(F)c(F)cc5[nH]c4=O)nn3)cc2)CC1 [A164] , please.
output: T

input: Next up: COC(=O)c1cccc(-n2cc(-c3cc4ccccc4[nH]c3=O)nn2)c1 [A23]
output: F

input: Also, O=C(c1ccc(-n2cc(-c3cc4cc(F)ccc4[nH]c3=O)nn2)cc1)N1CCCC1 [A273] please.
output: T

input: Entry COCCO[C@H]1CCN(C(=O)c2ccc(-n3cc(-c4cc5cc(Cl)ccc5[nH]c4=O)nn3)cc2)C1 [A259] please
output: T

input: For O=C(COc1ccc(-n2cc(-c3cc4cc(F)c(F)cc4[nH]c3=O)nn2)cc1)N1CCNCC1 [A140] then?
output: T
